Tested on: Human immunodeficiency virus
Assay: Antiviral activity against HIV
Assay type: functional
Settings: Human immunodeficiency virus 1; read-out: ED50 (the source's name)
As shown below, each of these molecules has a reported EC50 value.
Mention the unit after the number when you answer.

Molecule | Result
Cc1cn([C@@H]2O[C@@]3(CO)CO[C@H]3[C@H]2O)c(=O)[nH]c1=O | 140 nM

Pending molecule:
Request the reported EC50 associated with Cc1cn([C@H]2C[C@H](N=[N+]=[N-])[C@@H](CO)O2)c(=O)[nH]c1=O [ZIDOVUDINE]
1 nM

---

System: CCRF-CEM
Assay: Cytotoxicity against human CCRF-CEM cells after 72 hrs by MTT assay
Type: functional, cell-based
Catalogue of pIC50 readings, one per entry.
Please report pIC50 as the negative decimal logarithm of the molar concentration, giving only the number.

Entry Smiles | pIC50
O=C(c1ccccc1)N(C(=O)c1ccccc1)c1nc(N(C(=O)c2ccccc2)C(=O)c2ccccc2)c2ncn([C@@H]3O[C@@]4(CO)CO[C@@H]3[C@@H]4OCc3ccccc3)c2n1 | 6.44
C=CCc1nc(/C=C/C)c2ncn([C@@H]3O[C@@]4(CO)CO[C@@H]3[C@@H]4OCc3ccccc3)c2n1 | 5.12

Shifting focus to the compound that follows.
May I ask what pIC50 has been recorded for Nc1nc(Cl)nc2c1ncn2[C@H]1C[C@H](O)[C@@H](CO)O1 ?
9.30
